Molecular target: Calcium/calmodulin-dependent protein kinase type 1D (Homo sapiens);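 note: reported figure is the mean inhibition of CAMK1D, from the GSK PKIS screening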
Conditions: at 0.1 µM
experimental-endpoint: inhibition (%)
Could you give me the number in %? Just the number is fine.

GET /values?readout=inhibition&item= `CCNC(=O)O[C@H]1CN[C@H](C#Cc2cc3ncnc(Nc4ccc(OCc5cccc(F)c5)c(Cl)c4)c3s2)C1` 1.21

GET /values?readout=inhibition&item= `N#Cc1c(NC(=O)CN2CCOCC2)sc2c1CCCC2` -0.19

GET /values?readout=inhibition&item= `CCn1c(-c2nonc2N)nc2c(C#CC(C)(C)O)ncc(OC3CCNCC3)c21` 1.83

###

Molecular target: Glycogen synthase kinase-3 beta (Homo sapiens) (UniProt P49841);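 note: reported values are mean percent inhibition of GSK3B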
Sequence (P49841 whole entry, looked up): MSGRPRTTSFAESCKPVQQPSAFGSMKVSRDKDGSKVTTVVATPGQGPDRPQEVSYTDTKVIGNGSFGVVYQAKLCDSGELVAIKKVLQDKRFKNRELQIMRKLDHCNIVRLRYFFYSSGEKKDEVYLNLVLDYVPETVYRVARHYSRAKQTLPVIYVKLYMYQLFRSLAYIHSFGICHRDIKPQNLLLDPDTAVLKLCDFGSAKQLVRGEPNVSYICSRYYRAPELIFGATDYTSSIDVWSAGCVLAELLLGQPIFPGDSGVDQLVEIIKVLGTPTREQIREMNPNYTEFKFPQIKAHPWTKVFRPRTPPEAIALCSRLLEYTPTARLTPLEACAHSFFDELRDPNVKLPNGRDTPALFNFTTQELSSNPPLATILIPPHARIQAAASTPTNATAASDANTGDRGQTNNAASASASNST
Conditions: at 1 µM
I'd appreciate it if you could supply inhibition values for the items below.
Could you give me the number in %? Just the number is fine.

Lab note: need inhibition with Glycogen synthase kinase-3 beta (Homo sapiens) (UniProt P49841) for entry `Nc1nc(-c2ccc(F)cc2)c(-c2ccc3ncccc3n2)s1` , please look it up. 19.6

Lab note: need inhibition with Glycogen synthase kinase-3 beta (Homo sapiens) (UniProt P49841) for entry `Fc1ccc(-c2cc(-c3c[nH]nc3-c3ccccn3)ccn2)cc1` , please look it up. 2.88

Lab note: need inhibition with Glycogen synthase kinase-3 beta (Homo sapiens) (UniProt P49841) for entry `Nc1nc(-c2cccc(Cl)c2)c(-c2ccc3ncccc3n2)s1` , please look it up. 7.52

Lab note: need inhibition with Glycogen synthase kinase-3 beta (Homo sapiens) (UniProt P49841) for entry `CCN(CC)S(=O)(=O)c1ccc(OC)c(Nc2ncc(-c3ccccc3)o2)c1` , please look it up. 3.89

Lab note: need inhibition with Glycogen synthase kinase-3 beta (Homo sapiens) (UniProt P49841) for entry `CCn1c(-c2nonc2N)nc2c(C#CC(C)(C)O)nc(OC[C@H](N)c3ccccc3)cc21` , please look it up. 71.2

###

Biological target: Phosphatidylinositol 4-kinase beta (Homo sapiens) (UniProt Q9UBF8);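 note: values given are mean percent inhibition of PI4K-beta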
Sequence (Q9UBF8 2-816 limits assumed): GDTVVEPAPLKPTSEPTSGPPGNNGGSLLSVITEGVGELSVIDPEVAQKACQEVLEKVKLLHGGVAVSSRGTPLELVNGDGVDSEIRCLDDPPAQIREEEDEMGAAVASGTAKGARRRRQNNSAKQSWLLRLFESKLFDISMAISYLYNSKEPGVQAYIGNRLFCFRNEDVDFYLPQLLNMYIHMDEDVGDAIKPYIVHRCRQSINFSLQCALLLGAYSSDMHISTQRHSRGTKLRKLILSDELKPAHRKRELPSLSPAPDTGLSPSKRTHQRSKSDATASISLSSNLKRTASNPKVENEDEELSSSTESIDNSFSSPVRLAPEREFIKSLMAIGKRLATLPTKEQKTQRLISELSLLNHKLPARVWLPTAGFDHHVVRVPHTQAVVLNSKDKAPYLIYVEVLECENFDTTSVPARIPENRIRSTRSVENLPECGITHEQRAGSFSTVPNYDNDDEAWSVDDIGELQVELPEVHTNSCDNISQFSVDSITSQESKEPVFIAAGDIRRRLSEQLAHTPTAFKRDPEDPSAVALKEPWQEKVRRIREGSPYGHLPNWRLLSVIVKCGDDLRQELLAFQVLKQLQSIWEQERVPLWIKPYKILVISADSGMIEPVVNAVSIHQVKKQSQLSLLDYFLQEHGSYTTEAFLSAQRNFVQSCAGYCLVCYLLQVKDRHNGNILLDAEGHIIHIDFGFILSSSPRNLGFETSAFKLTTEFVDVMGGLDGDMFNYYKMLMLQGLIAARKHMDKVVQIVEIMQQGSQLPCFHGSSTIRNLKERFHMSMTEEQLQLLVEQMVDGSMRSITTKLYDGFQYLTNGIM
Conditions: at 0.1 µM
experimental-endpoint: inhibition (%)
Could you give me the number in %? Just the number is fine.

GET /values?readout=inhibition&item= `Cc1ccc2c(-c3ccnc(Nc4ccccc4)n3)c(-c3ccc(F)cc3)nn2n1` 2.52

GET /values?readout=inhibition&item= `CCn1c(-c2nonc2N)nc2c(C#CC(C)(C)O)nc(OC[C@H](N)c3ccccc3)cc21` -2.33

GET /values?readout=inhibition&item= `COc1cc(Nc2nccc(Nc3ccc4c(C)n[nH]c4c3)n2)cc(OC)c1OC` 3.96

GET /values?readout=inhibition&item= `NC(=O)c1sc(-n2cnc3ccc(C(F)(F)F)cc32)cc1OCc1ccccc1Br` -2.33

GET /values?readout=inhibition&item= `Nc1ncc(-c2cccc(S(N)(=O)=O)c2)c2scc(-c3ccc(F)c(Cl)c3)c12` 7.12

GET /values?readout=inhibition&item= `Nc1nc(-c2ccc(F)cc2)c(-c2ccc3ncccc3n2)s1` 8.12

GET /values?readout=inhibition&item= `Clc1ccc(-c2nn3ncccc3c2-c2ccnc(Nc3ccccc3)n2)cc1` -0.39

GET /values?readout=inhibition&item= `CNC(=O)c1cccc(C#Cc2cncnc2Nc2ccc(OCc3cccc(F)c3)c(Cl)c2)c1` 1.78

GET /values?readout=inhibition&item= `Fc1cccc(COc2ccc(Nc3ncnc4sc(-c5ccco5)cc34)cc2Cl)c1` -1.28

GET /values?readout=inhibition&item= `CCCN(CCS(C)(=O)=O)Cc1ccc(-c2ccc3ncnc(Nc4ccc(OCc5cccc(F)c5)c(Cl)c4)c3c2)o1` 1.73

GET /values?readout=inhibition&item= `CCn1c(-c2nonc2N)nc2cnc(Oc3cccc(NC(=O)c4ccc(N(C)C)cc4)c3)cc21` -0.87

GET /values?readout=inhibition&item= `CS(=O)(=O)CCNCc1coc(-c2ccc3ncnc(Nc4ccc(OCc5ccccc5)cc4)c3c2)c1` -2.05

GET /values?readout=inhibition&item= `COc1cccc(-n2ncc3c(N/N=C/c4ccc(F)cc4)ncnc32)c1` -4.22

GET /values?readout=inhibition&item= `Cc1cccc2c1NC(=O)/C2=N\Nc1ccc(S(N)(=O)=O)cc1` -4.22

GET /values?readout=inhibition&item= `CNC(=O)c1cncc(/C=C/c2ccccc2Cl)c1` 3.54

GET /values?readout=inhibition&item= `FC(F)(F)c1cccc(-c2nn3ncccc3c2-c2ccnc(Nc3ccc4c(c3)OCCO4)n2)c1` -4.9

GET /values?readout=inhibition&item= `Cc1ccc(O)cc1Nc1ccnc2cc(-c3ccccn3)ccc12` -2.37

GET /values?readout=inhibition&item= `[O-][S+]1CCN(Cc2ccc(-c3ccc4ncnc(Nc5ccc(OCc6cccc(F)c6)c(Cl)c5)c4c3)o2)CC1` 0.59

GET /values?readout=inhibition&item= `COc1cc2c(cc1Nc1nc(Nc3ccsc3C(N)=O)c3cc[nH]c3n1)N(C(=O)CN(C)C)CCC2(C)C` -0.32

GET /values?readout=inhibition&item= `Fc1ccc(-c2cc(-c3c[nH]nc3-c3ccccn3)ccn2)cc1` -6.09

GET /values?readout=inhibition&item= `CCOc1ccc2c(-c3ccnc(Nc4cccc(C(F)(F)F)c4)n3)cnn2n1` -2.42

GET /values?readout=inhibition&item= `COc1cc(N2CCN(C(C)C)CC2)ccc1Nc1nc(Nc2ccc(F)cc2C(N)=O)c2cc[nH]c2n1` 0.5

GET /values?readout=inhibition&item= `COc1cc2ncn(-c3cc(OCc4ccccc4C(F)(F)F)c(C(=O)N(C)C)s3)c2cc1OC` 2.07

GET /values?readout=inhibition&item= `COC(=O)Nc1nc2ccc(S(=O)(=O)c3ccc(NC(=O)Nc4cc(C(F)(F)F)ccc4F)cc3)cc2[nH]1` 1.19

GET /values?readout=inhibition&item= `NS(=O)(=O)c1ccc(N/N=C2\C(=O)Nc3ccc4ncccc4c32)cc1` 1.16
